System Name: purified recombinant human GAC (GLS1) (Homo sapiens)
Sequence (O94925 55-598 isoform O94925-3 limits assumed): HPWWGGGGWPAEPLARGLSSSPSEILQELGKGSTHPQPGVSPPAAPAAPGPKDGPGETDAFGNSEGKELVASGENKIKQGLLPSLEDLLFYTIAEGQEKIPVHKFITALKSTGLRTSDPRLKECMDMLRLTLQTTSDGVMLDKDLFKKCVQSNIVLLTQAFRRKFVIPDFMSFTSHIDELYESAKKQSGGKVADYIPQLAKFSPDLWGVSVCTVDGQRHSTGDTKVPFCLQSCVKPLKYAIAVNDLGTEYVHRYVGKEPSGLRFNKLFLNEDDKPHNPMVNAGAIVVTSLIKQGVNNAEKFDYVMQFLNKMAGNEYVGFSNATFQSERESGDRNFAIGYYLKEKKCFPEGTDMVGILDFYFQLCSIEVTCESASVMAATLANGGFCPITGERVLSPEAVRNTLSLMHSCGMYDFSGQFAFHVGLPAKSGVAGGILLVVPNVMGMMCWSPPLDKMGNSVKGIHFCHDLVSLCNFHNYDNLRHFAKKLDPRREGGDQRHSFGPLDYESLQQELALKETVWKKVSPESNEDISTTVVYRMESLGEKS
Test Name: GLS1 Enzymatic Activity Assay (dual-coupled enzymatic assay)
pIC50: −log10 of the molar value.
Observation Type: pIC50

Example molecules with recorded pIC50:
[[record]]
molecule = "CC(=O)Nc1cccc(-c2c(C3CC3)[nH]c3nnc(CCCCn4cc(C(=O)NCc5ccccn5)nn4)cc23)c1 [Example 153]"
system_name = "purified recombinant human GAC (GLS1) (Homo sapiens)"
result = "> 7.00"

[[record]]
molecule = "O=C(NCc1ccccn1)c1cn(CCCCc2cc3c(-c4ccc5c(c4)OCO5)c(C4CC4)[nH]c3nn2)nn1 [Example 145]"
system_name = "purified recombinant human GAC (GLS1) (Homo sapiens)"
result = "> 7.00"

[[record]]
molecule = "Cc1ccc(CNC(=O)c2cn(CCCCc3cc4c(Cl)c(C5CC5)[nH]c4nn3)nn2)cn1 [Example 19, 2,2,2-trifluoroacetate]"
system_name = "purified recombinant human GAC (GLS1) (Homo sapiens)"
result = "> 7.00"


Proceed to the following item.
Q: # get_value(readout= pIC50, system= purified recombinant human GAC (GLS1) (Homo sapiens)) for CC(C)(C)c1cc2cc(CCCCn3ccc(NC(=O)Cc4ccccc4)cc3=O)nnc2[nH]1 [Example 30]
A: 6.30 to 7.00

====

System Name: purified recombinant human GAC (GLS1) (Homo sapiens, UniProt O94925)
Sequence (O94925 55-598 isoform O94925-3 limits assumed): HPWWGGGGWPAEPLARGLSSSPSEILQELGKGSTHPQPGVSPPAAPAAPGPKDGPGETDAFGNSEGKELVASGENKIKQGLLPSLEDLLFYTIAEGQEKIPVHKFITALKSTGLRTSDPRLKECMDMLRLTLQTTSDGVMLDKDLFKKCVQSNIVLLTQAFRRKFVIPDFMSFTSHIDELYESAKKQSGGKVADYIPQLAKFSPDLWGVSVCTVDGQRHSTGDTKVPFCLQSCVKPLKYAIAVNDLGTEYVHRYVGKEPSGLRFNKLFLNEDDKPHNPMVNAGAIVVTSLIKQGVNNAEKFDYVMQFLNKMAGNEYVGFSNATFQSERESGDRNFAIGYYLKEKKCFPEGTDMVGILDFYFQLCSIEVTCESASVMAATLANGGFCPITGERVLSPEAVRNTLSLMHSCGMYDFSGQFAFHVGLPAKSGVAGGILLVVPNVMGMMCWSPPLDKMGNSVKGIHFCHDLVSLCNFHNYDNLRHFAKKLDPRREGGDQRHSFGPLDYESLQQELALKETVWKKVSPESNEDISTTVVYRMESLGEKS
Test Name: GLS1 Enzymatic Activity Assay (dual-coupled enzymatic assay)
Observation Type: IC50

[[record]]
compound = "COc1cc(CNC(=O)c2cn(CCCCc3cc4cc(C5CC5)[nH]c4nn3)nn2)ccn1"
system_name = "purified recombinant human GAC (GLS1) (Homo sapiens, UniProt O94925)"
observation_type = "IC50"
result = "100 to 500 nM"


Okay, here is my list. What is IC50 for each of these?
1. Cc1ccc(CNC(=O)c2cn(CCCCc3cc4c(Br)c(C5CC5)[nH]c4nn3)nn2)cn1 [Example 18, 2,2,2-trifluoroacetate]
2. N#Cc1ccc(-c2c(C3CC3)[nH]c3nnc(CCCCn4cc(C(=O)NCc5ccccn5)nn4)cc23)cc1
3. COc1ncccc1CNC(=O)c1cn(CCCCc2cc3cc(C4CC4)[nH]c3nn2)nn1
4. CC(C)(O)c1ccc(CNC(=O)c2cn(CCCCc3cc4c(-c5cccc(OC(F)(F)F)c5)c(C5CC5)[nH]c4nn3)nn2)cn1
5. N#Cc1ccc(CNC(=O)c2cn(CCCCc3cc4cc(C5CC5)[nH]c4nn3)nn2)cn1
6. CC(C)(CO)CNC(=O)c1nnc(CCCCc2cc3cc(Cc4ccccc4)[nH]c3nn2)s1
7. O=C(NCc1ccccn1)c1cn(CCCCc2cc3c(-c4cncnc4)c(C4CC4)[nH]c3nn2)nn1

A:
["< 100 nM", "< 100 nM", "500 to 5000 nM", "< 100 nM", "100 to 500 nM", "100 to 500 nM", "100 to 500 nM"]

Hello, the source for this data is patent US20160002248A1, in case you need it.
